The origin of these recorded values is patent US6545002B1.

biological target: rat A2A receptors (rA2A) (Rattus norvegicus, UniProt P30543); construct: to A2A receptors from rat striatal membranes was performed as described; from tissue; host or cells: rat striatal membranes; test: Displacement of [3H]CGS 21680 binding in rat striatal membranes; details: Table 4; read-out: rA2A Ki
Sequence (P30543 whole entry): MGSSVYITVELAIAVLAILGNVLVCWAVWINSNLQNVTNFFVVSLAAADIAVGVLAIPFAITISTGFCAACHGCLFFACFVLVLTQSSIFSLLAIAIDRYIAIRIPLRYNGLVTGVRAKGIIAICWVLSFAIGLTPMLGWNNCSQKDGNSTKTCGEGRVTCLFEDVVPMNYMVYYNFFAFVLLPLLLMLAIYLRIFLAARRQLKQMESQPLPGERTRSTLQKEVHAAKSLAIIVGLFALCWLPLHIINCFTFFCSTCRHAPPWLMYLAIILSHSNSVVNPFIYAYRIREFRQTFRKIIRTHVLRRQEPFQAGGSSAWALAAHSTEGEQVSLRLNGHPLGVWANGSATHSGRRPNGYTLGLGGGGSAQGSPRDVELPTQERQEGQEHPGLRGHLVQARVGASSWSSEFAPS
Readout type: Ki (nM)

[P] CCCn1c(=O)c2[nH]c(-c3ccc(OCC(=O)NNC(=O)[C@H](CCC(=O)O)NC(=O)C(F)(F)F)cc3)nc2n(CCC)c1=O
[Q] CCCn1c(=O)c2[nH]c(-c3ccc(OCC(=O)NNC(=O)C4=C(C(=O)O)CCCC4)cc3)nc2n(CCC)c1=O
[R] CCCn1c(=O)c2[nH]c(-c3ccc(OCC(=O)NN4C(=O)C=C(c5ccccc5)C4=O)cc3)nc2n(CCC)c1=O
Query: // rank the listed compounds by Ki, lowest value first Dear reader, please state the labels in the requested order.
Response: Q, P, R

* * *

target: recombinant human A2A receptors (hA2A) (Homo sapiens); test: Radioligand binding (125I-ZM241385) at recombinant human A2A receptors in HEK-293 cells; conditions: read-out: hA2A Ki, values marked (h); Table 1; recombinant human A2A, HEK 293
Sequence (P29274 whole entry): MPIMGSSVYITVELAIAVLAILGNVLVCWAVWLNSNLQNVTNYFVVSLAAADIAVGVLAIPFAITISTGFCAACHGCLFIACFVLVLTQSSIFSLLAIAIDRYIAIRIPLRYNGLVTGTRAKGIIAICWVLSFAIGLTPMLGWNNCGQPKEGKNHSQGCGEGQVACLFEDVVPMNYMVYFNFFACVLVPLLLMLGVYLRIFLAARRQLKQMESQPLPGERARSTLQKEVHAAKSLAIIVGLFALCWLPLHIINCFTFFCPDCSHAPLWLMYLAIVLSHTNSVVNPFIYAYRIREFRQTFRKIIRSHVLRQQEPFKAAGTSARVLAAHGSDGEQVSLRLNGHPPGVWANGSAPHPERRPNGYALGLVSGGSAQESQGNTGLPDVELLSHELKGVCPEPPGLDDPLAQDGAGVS
Readout type: Ki (nM)

Example cases with answers are listed next.
CCCCn1c(=O)c2[nH]c(-c3ccc(OCC(=O)O)cc3)nc2n(CCCC)c1=O | 2540
C=CCn1c(=O)c2[nH]c(-c3ccc(OCC(=O)O)cc3)nc2n(CC=C)c1=O | 2370

[1] CCCn1c(=O)c2[nH]c(-c3ccc(C=CC(=O)O)cc3)nc2n(CCC)c1=O
[2] CCCn1c(=O)c2[nH]c(-c3ccc(OCC(=O)NN4C(=O)C(C)=C(C)C4=O)cc3)nc2n(CCC)c1=O
Query: Which gives the smaller Ki number: 1 or 2 ? Response format: the label of the selected entry.
Response: 1
(1: 190 nM, 2: 1970 nM)

* * *

biological target: human A2B receptors (hA2B) (Homo sapiens); construct: expressed in transfected cells; host or cells: HEK-293 (HEK-A2B, G418-selected); test: Radioligand binding ([125I]ABOPX / [3H]ZM241385) at human A2B receptors expressed in HEK-293 cells; conditions: Table 1; [125I]ABOPX, HEK-293; read-out: hA2B Ki or IC50
Sequence (P29275 whole entry): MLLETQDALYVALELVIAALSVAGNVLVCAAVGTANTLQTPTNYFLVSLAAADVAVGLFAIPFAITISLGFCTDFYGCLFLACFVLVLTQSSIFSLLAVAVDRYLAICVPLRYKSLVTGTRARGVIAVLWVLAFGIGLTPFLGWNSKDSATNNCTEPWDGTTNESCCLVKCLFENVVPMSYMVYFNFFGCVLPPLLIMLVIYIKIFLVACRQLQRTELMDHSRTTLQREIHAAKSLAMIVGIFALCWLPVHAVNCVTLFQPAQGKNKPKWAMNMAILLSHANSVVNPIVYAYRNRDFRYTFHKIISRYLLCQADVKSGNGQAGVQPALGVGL
pKi: −log10 of the molar value.
Readout type: pKi

// below: answered compounds
C=CCn1c(=O)c2[nH]c(-c3ccc(OCC(=O)O)cc3)nc2n(CC=C)c1=O | 6.85
CCCn1c(=O)c2[nH]c(-c3ccc(OCC(=O)ON4C(=O)CCC4=O)cc3)nc2n(CCC)c1=O | 8.01
CCCCn1c(=O)c2[nH]c(-c3ccc(OCC(=O)O)cc3)nc2n(CCCC)c1=O | 7.32
CCCn1c(=O)c2[nH]c(-c3ccc(OCC(=O)NN4C(=O)C(C)=C(C)C4=O)cc3)nc2n(CCC)c1=O | 7.58
O=C(O)/C=C/c1ccc(-c2nc3c([nH]2)c(=O)n(Cc2ccccc2)c(=O)n3Cc2ccccc2)cc1 | 6.33

[I] O=C(O)C=Cc1ccc(-c2nc3c([nH]2)c(=O)n(CC2CCCCC2)c(=O)n3CC2CCCCC2)cc1
[II] CCCn1c(=O)c2[nH]c(-c3ccc(C=CC(=O)O)cc3)nc2n(CCC)c1=O
[III] O=C(O)COc1ccc(-c2nc3c([nH]2)c(=O)n(Cc2ccccc2)c(=O)n3Cc2ccccc2)cc1
Query: Hi! Can you put these in order of pKi, lowest number first? Reply format: the labels, ordered as requested.
Response: III, I, II
